Data provenance: paper PMC9482650

system name: GRIP2_6, Q9C0E4
Sequence (Q9C0E4 648-740): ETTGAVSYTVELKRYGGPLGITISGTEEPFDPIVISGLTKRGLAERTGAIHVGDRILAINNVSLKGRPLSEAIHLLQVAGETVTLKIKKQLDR
assay notes: holdup assay
Design: key: below the threshold = too weak to quantify, mostly under pKd 3.1 to 4
experimental context: plain residues with an end cap or a label only (N-terminal biotin on a linker: ado-ado)
measured metric: pKd

binder | measured metric | experimental result
TETASVCTKV [SLC23A1, Q9UHI7] | pKd | below the threshold
FVHPILQSAV [PRKCA, P17252] | pKd | below the threshold
QKNKDKEYYV [NRXN3_rs746444206, Q9Y4C0] | pKd | 4.02
EEPEERHTEL [CES2, O00748] | pKd | below the threshold
